System: MDA-MB-231 viability, CellTiter-Glo luminescence, 72 h
Assay: viability of MDA231 breast tumor cells – cell-based, CellTiter-Glo luminescence, dry powder, dose response (AID 588705)
Recorded Endpoint: AC50

>>> observed_measurement("O=C(COc1ccc(Cl)cc1Cl)N/N=C/c1ccc[nH]1")
"47.6 µM"
>>> observed_measurement("O=C(COc1ccc(Cl)cc1Cl)N/N=C/c1cnc[nH]1")
"31.6 µM"
>>> observed_measurement("CC(C)(C)c1ccc2c(c1)OC(C(=O)N/N=C/c1ccc[nH]1)CO2 (stereo unspecified)")
"14.7 µM"
>>> observed_measurement("O=C(COc1cc(Cl)ccc1Cl)N/N=C/c1ccc[nH]1")
"7.24 µM"
>>> observed_measurement("O=C(COc1c(Cl)cc(Cl)cc1Cl)N/N=C/c1ccc[nH]1")
"2.81 µM"
>>> observed_measurement("Cc1cc(Cl)ccc1OCC(=O)N/N=C/c1ccc[nH]1")
"16.7 µM"
